What Body weight(g) increased was measured for each of the following?
tested on: nutritional obesity rats; experiment: Body weight of nutritional obesity rats on high-fat feed, intragastric drug for 30 d (Example 17); type: in vivo, rat; conditions: Table 1; increase over 30 d of administration, high-fat feed; x ± s; note: test concentration or dose not given here
Where a name gives a salt, the structure may show the parent alone.

Name the recorded Body weight(g) increased of the item CC(=O)OC1CC(C)(C)C(=C=C/C(C)=C/C=C/C(C)=C/C=C/C=C(C)/C=C/C=C(\C)C(=O)CC23OC2(C)CC(OC(=O)CCC(=O)Oc2ccc(/C=C/c4cc(O)cc(O)c4)cc2)CC3(C)C)[C@@](C)(O)C1 (stereo partly drawn) [compound 14, fucoxanthin resveratrol succinate] in your answer. 28.52 ± 1.21ΔΔ g

Name the recorded Body weight(g) increased of the item C\C(C=C=C1C(C)(C)CC(O)C[C@@]1(C)O)=C/C=C/C(C)=C/C=C/C=C(C)/C=C/C=C(\C)C(=O)CC12OC1(C)CC(O)CC2(C)C (stereo partly drawn) [fucoxanthol, reference compound] in your answer. 39.39 ± 18.11ΔΔ g

Name the recorded Body weight(g) increased of the item CC(=O)OC1CC(C)(C)C(=C=C/C(C)=C/C=C/C(C)=C/C=C/C=C(C)/C=C/C=C(\C)C(=O)CC23OC2(C)CC(OC(=O)[C@@H](O)[C@H](O)C(=O)O)CC3(C)C)[C@](C)(O)C1 (stereo partly drawn) [compound 11, fucoxanthin tartrate] in your answer. 29.25 ± 1.23ΔΔ g

Name the recorded Body weight(g) increased of the item CC(=O)OC1CC(C)(C)C(=C=C/C=C/C=C/C(C)=C/C=C/C=C(C)/C=C/C=C(\C)C(=O)CC23OC2(C)CC(OC(=O)CCC(=O)OC[C@H](O)[C@H]2OC(=O)C(O)=C2O)CC3(C)C)[C@@](C)(O)C1 (stereo partly drawn) [compound 4, fucoxanthin succinate-4-vitamin C ester] in your answer. 27.41 ± 1.21ΔΔ g

Name the recorded Body weight(g) increased of the item CC(=O)OC1CC(C)(C)C(=C=C/C(C)=C/C=C/C(C)=C/C=C/C=C(C)/C=C/C=C(\C)C(=O)CC23OC2(C)CC(OC(=O)CC(O)(CC(=O)O)C(=O)O)CC3(C)C)[C@](C)(O)C1 (stereo partly drawn) [compound 1, fucoxanthin citrate] in your answer. 28.50 ± 1.15ΔΔ g

Name the recorded Body weight(g) increased of the item CC(=O)OC1CC(C)(C)C(=C=C/C(C)=C/C=C/C(C)=C/C=C/C=C(C)/C=C/C=C(\C)C(=O)CC23OC2(C)CC(O)CC3(C)C)[C@](C)(O)C1 (stereo partly drawn) [fucoxanthin, reference compound] in your answer. 43.68 ± 19.13Δ g

Each recorded value in this set is attributed to patent US20120220580A1.
